The reported numbers originate from patent US20090181986A1.

- Target System: hERG potassium channel (Homo sapiens, UniProt Q12809)
- Sequence (Q12809 whole entry): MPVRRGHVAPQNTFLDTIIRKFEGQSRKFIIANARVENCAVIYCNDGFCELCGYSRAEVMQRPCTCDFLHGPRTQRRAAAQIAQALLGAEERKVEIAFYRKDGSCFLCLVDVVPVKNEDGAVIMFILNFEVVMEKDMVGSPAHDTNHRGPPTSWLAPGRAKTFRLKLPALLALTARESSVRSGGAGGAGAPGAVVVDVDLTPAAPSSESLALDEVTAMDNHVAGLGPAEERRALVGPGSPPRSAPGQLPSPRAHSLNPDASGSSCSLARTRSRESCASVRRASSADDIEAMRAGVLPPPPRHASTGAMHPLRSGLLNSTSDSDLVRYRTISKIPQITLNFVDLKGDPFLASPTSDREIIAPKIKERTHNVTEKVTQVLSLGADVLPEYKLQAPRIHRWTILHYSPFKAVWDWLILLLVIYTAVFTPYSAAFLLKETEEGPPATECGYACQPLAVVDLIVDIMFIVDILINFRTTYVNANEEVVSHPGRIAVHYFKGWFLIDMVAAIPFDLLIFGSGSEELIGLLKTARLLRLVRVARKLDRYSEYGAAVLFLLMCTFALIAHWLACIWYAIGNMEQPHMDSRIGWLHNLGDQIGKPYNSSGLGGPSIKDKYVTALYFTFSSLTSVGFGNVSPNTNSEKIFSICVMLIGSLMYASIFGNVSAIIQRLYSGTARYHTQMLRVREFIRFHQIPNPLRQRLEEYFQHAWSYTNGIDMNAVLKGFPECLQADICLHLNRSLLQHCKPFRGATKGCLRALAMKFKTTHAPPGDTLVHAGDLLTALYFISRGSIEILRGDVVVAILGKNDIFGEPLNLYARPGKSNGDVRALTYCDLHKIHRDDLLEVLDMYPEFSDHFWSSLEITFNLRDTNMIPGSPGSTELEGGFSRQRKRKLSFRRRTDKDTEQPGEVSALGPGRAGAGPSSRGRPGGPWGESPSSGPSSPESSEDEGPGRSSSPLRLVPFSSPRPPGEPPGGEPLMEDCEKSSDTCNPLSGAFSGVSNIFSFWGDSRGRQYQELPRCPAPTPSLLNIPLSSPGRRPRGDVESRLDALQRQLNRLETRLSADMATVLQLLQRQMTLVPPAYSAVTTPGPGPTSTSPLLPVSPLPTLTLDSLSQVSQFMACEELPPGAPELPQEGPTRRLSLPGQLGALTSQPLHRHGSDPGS
- Assay Overview: hERG screening assay (PatchXpress patch clamp, CHO cells)
- Measurement Parameters: 1 μM test cmpd
Observable: hERG Patch Clamp hERG % blk (1 μM test cmpd) (%)
Give bare numbers, in %.

CC1=C(C(=O)OCc2ccccc2)C(c2ccccc2N2CCN(C)CC2)n2nnnc2N1 (stereo not drawn) : 57

# return hERG Patch Clamp hERG % blk (1 μM test cmpd) for each item in the list
1. CC1=C(C(=O)OCc2ccccc2)C(c2cccc3c2OCO3)n2nnnc2N1 (stereo not drawn)
2. COc1ccc(COC(=O)C2=C(C)Nc3nnnn3C2c2cccc3ccccc23)cc1OC (stereo not drawn)
3. CC1=C(C(=O)OCc2ccccc2)C(c2sc3ccccc3c2C)n2nnnc2N1 (stereo not drawn)
4. CC1=C(C(=O)N2CCC(c3ccc(C(=O)O)cc3)CC2)C(c2cccc3ccccc23)C2=C(CCCC2=O)N1 (stereo not drawn)
5. CC1=C(c2nnc(CCc3ccccc3)o2)C(c2cccc3ccccc23)n2nnnc2N1 (stereo not drawn)
6. CC1=C(C(=O)OCc2ccccc2)C(c2cccc3ccccc23)n2nnnc2N1 (stereo not drawn)
7. CC1=C(C(=O)OCc2ccccc2)C(c2ccccc2-c2ccccc2)n2nnnc2N1 (stereo not drawn)

1: 14.5; 2: 24; 3: 16.5; 4: 12; 5: 10.5; 6: 14; 7: 11

# return hERG Patch Clamp hERG % blk (1 μM test cmpd) for each item in the list
1. CC1=C(C(=O)OCc2ccccc2)C(c2ccc(N(C)C)cc2[N+](=O)[O-])n2nnnc2N1 (stereo not drawn)
2. C=CCOC(=O)C1=C(C)Nc2nnnn2C1c1cccc2ccccc12 (stereo not drawn)
3. CCOC(=O)C1=C(C)Nc2nnnn2C1c1ccccc1-n1cccn1.Cl (stereo not drawn)
4. CCOC(=O)C1=C(C)NC(C)=C(C(=O)OCC)C1c1cc2ccccc2o1

1: 27; 2: 10; 3: 12; 4: 15.5

# return hERG Patch Clamp hERG % blk (1 μM test cmpd) for each item in the list
1. CC1=C(C(=O)OCc2ccc(Cn3cccn3)cc2)C(c2cccc3ccccc23)n2nnnc2N1 (stereo not drawn)
2. CC1=C(C(=O)OCc2ccccc2)[C@@H](c2ccccc2-c2ccc(C)o2)n2nnnc2N1
3. CCOC(=O)C1=C(C(C)C)NC(C(C)C)=C(C(=O)OCC)C1c1ccc(Br)s1
4. CCOC(=O)C1=C(C)Nc2nc(C#N)c(C#N)n2C1c1cccc2ccccc12 (stereo not drawn)
5. CCOC(=O)C1=C(C)NC(C)=C(C(=O)OCC)C1c1ccc2c(c1)OCCO2
6. CC1=C(C(=O)OCc2ccccc2)C(c2ccc3ccccc3c2)c2c(C)n[nH]c2N1 (stereo not drawn)

1. 12.5
2. 10
3. 10
4. 25
5. 16
6. 10

====

For each entry below, report its hERG Patch Clamp hERG % blk (1 μM test cmpd) value.
- Target System: hERG potassium channel (Homo sapiens)
- Assay Overview: hERG screening assay (PatchXpress patch clamp, CHO cells)
- Measurement Parameters: 1 μM test cmpd
Give bare numbers, in %.

Use these answered entries as a reference point.
N#CC1=C(N)OC2=C(C(=O)CC(c3ccccc3)C2)C1c1cccs1 (stereo not drawn) : 19
CCOC(=O)C1=C(C)Nc2[nH]nc(C)c2C1c1cccc2ccccc12 (stereo not drawn) : 14
CCOC(=O)C1=C(C)Nc2nnnn2C1c1cccc2ccccc12 (stereo not drawn) : 23
COc1cc(Cl)ccc1COC(=O)C1=C(C)Nc2nnnn2C1c1c(Cl)cccc1Cl (stereo not drawn) : 10
CCOC(=O)C1=C(C)NC2=C(C(=O)CCC2)C1c1ccnc2ccccc12 (stereo not drawn) : 10.5

# return hERG Patch Clamp hERG % blk (1 μM test cmpd) for each item in the list
1. CC1=C(C(=O)NCc2ccccc2)C(c2ccsc2)C2=C(CCCC2=O)N1 (stereo not drawn)
2. CCOC(=O)C1=C(C)Nc2nnnn2C1c1cc2ccccc2o1 (stereo not drawn)
3. CCOC(=O)C1=C(C)NC(C)=C(C(=O)OCC)C1c1sc2ccccc2c1C

1. 11.5
2. 10
3. 22.9

Notebook: pull reported hERG Patch Clamp hERG % blk (1 μM test cmpd) for hERG potassium channel (Homo sapiens), entry CCCC1=C(C(=O)OCC)C(c2ccc(C(=O)O)cc2)C2=C(CC(C)(C)CC2=O)N1 (stereo not drawn)
10

====

- Target System: human cardiac L-type calcium channels (hCav1.2, coexpressed with the beta 2 subunit) (Homo sapiens)
- Construct: expressed in transfected cells
- Assay Overview: L-type calcium channel patch clamp screening assay (ICaL, HEK293)
- Type: cell-based
- Measurement Parameters: 1 μM test compound; hCav1.2 in HEK293; percentage of current inhibited at steady state
Observable: ICaL Patch Clamp Assay 1 μM % blk (%)
One number for each entry, in %.

Use these answered entries as a reference point.
CCOC(=O)C1=C(C)NC(C)=C(C(=O)OCC)C1c1ccccc1Br : 91.8
CC1=C(C(=O)OCc2ccccc2)C(c2ccc(N(C)C)cc2[N+](=O)[O-])n2nnnc2N1 (centres unmarked) : 2.7
CCOC(=O)C1=C(C)NC(C)=C(C(=O)OCC)C1c1ccc(N(C)C)cc1[N+](=O)[O-] : −0.1
CCOC(=O)C1=C(C)NC(C)=C(C(=O)OCC)C1c1ccc(OC)cc1F : 3.7

Please turn your attention to the following entry.
I am curious: what ICaL Patch Clamp Assay 1 μM % blk value has been reported for CCOC(=O)C1=C(C)NC(C)=C(C(=O)OCC)C1c1ccc(OC)cc1C#N ?
3.7

====

- Target System: wild-type human cardiac sodium channel, hNav1.5 (Homo sapiens)
- Sequence (Q14524 whole entry): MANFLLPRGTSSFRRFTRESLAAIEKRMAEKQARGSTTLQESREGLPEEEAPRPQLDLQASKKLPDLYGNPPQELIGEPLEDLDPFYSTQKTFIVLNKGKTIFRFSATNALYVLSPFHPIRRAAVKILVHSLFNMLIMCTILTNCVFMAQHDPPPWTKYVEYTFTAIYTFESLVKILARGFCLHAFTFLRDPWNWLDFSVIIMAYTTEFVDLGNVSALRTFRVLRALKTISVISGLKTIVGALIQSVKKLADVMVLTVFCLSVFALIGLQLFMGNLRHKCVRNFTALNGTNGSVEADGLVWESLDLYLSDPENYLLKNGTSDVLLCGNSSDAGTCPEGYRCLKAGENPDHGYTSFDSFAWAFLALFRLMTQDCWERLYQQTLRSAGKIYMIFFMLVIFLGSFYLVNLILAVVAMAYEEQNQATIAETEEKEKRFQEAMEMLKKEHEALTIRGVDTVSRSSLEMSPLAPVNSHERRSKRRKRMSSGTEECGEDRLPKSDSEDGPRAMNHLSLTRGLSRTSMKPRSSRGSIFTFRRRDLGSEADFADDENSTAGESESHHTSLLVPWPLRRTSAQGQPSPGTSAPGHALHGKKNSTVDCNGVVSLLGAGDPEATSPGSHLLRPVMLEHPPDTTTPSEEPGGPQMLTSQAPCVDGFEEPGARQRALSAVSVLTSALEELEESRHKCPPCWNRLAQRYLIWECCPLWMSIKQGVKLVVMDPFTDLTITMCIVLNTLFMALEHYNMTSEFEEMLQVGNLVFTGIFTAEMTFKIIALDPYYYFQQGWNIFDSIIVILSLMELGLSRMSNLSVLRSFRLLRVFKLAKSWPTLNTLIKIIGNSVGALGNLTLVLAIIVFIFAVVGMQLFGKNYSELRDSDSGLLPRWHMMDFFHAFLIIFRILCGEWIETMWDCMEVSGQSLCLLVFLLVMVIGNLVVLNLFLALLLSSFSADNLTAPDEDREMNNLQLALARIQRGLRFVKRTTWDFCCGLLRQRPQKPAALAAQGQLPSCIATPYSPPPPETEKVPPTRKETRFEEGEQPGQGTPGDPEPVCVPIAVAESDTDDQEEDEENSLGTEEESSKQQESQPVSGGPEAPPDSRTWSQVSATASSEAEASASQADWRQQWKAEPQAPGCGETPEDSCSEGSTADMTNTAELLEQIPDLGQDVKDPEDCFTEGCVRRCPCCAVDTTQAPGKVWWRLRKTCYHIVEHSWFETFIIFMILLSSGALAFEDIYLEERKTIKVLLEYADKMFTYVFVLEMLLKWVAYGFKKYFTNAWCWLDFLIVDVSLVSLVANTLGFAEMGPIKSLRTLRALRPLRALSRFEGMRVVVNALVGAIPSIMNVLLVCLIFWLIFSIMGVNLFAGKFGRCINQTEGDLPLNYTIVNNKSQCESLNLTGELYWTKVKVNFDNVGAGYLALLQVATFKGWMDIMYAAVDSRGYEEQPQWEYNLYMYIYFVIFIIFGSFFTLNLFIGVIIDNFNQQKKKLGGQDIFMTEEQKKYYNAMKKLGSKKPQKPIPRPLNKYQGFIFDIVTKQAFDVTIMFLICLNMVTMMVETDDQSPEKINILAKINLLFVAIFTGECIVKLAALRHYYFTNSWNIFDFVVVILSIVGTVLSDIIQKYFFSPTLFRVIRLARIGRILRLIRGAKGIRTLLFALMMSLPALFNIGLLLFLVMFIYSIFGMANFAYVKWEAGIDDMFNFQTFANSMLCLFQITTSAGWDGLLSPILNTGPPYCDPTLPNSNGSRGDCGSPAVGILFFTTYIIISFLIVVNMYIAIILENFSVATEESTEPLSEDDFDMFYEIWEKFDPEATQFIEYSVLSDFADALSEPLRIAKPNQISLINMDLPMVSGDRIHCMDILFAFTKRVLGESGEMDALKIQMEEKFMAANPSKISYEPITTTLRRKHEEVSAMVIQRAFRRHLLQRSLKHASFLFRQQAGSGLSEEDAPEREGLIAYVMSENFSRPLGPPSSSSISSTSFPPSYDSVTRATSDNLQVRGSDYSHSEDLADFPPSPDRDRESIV
- Assay Overview: Peak INa screening assay (tonic block and use-dependent block)
- Format: cell-based
- Measurement Parameters: tonic block; test compound at 10 μM; read-out: Tonic Peak INa % blk
Observable: inhibition at 10 µM

Use these answered entries as a reference point.
CC1=C(C(=O)OCc2ccccc2)C(c2cccc3ccccc23)n2nnnc2N1Cc1nnn[nH]1 (stereo not shown) : 32.2%
COc1ccc(C2C(C(=O)OCc3ccccc3)=C(C)Nc3nnnn32)c(C#N)c1 (stereo not shown) : 13.9%
CC1=C(C(=O)OCc2ccccc2)C(c2sccc2Br)n2nnnc2N1 (stereo not shown) : 34.6%
CCOC(=O)C1=C(C)Nc2nnnn2C1c1ccccc1I (stereo not shown) : 20.6%
CC1=C(C(=O)OCc2ccccc2)[C@@H](c2ccccc2-c2ccc(C)o2)n2nnnc2N1 : 8.8%

# return inhibition at 10 µM for each item in the list
1. CCOC(=O)C1=C(C)Nc2c(c(C)nn2C)C1c1cccc2ccccc12 (stereo not shown)
2. CC1=C(C(=O)OCc2ccccc2)C(c2ccccc2-c2ccc(NS(C)(=O)=O)cc2)c2cn[nH]c2N1 (stereo not shown)

2.8%
20%

====

For each entry below, report its hERG Patch Clamp hERG % blk (1 μM test cmpd) value.
- Target System: hERG potassium channel (Homo sapiens, UniProt Q12809)
- Assay Overview: hERG screening assay (PatchXpress patch clamp, CHO cells)
- Measurement Parameters: 1 μM test cmpd
Numbers only, in %.

Use these answered entries as a reference point.
N#CC1=C(N)OC2=C(C(=O)CCC2)C1c1ccsc1 (stereo not drawn) : 10
COC(=O)c1ccc(-c2n[nH]c3c2C(c2cccc4ccccc24)C2=C(COC2=O)N3)cc1 (stereo not drawn) : 34
CC1=C(C(=O)OCc2ccccc2)C(c2ccccc2-c2cccc(NS(C)(=O)=O)c2)n2nnnc2N1 (stereo not drawn) : 10
CC1=C(C(=O)OCc2ccccc2)C(c2ccccc2-c2ccc(NS(C)(=O)=O)cc2)c2cn[nH]c2N1 (stereo not drawn) : 28
CC1=C(C(=O)OCc2ccccc2)C(c2occc2-c2ccc(F)cc2)n2nnnc2N1 (stereo not drawn) : 10
CC1=C(C(=O)OCc2ccccc2)C(c2c(-c3ccc(C(=O)O)cc3)sc3ccccc23)n2nnnc2N1 (stereo not drawn) : 12.5

# return hERG Patch Clamp hERG % blk (1 μM test cmpd) for each item in the list
1. CC1=C(C(=O)O[C@@H](C)c2ccccc2)[C@@H](c2cccc3ccccc23)n2nnnc2N1
2. CCOC(=O)C1=C(C)NC(C)=C(C(=O)OCC)C1c1ccc(CC)s1
3. CC1=C(C(=O)OCc2ccccc2)C(c2nccs2)c2cn[nH]c2N1 (stereo not drawn)
4. CCOC(=O)C1=C(CC)NC(CC)=C(C(=O)OCC)C1c1ccc(Br)s1
5. CC1=C(C(=O)OCc2ccccc2)[C@@H](c2ccccc2-c2ccc(Cl)s2)n2nnnc2N1
6. CC1=C(C(=O)OCc2ccccc2)C(c2nccs2)n2nccc2N1 (stereo not drawn)
7. CC1=C(C(=O)N2CCC(c3ccccc3)CC2)C(c2ccsc2)C2=C(CCCC2=O)N1 (stereo not drawn)

1: 10; 2: 11; 3: 10; 4: 10.5; 5: 11.5; 6: 10; 7: 15

# return hERG Patch Clamp hERG % blk (1 μM test cmpd) for each item in the list
1. CC1=C(C(=O)OCc2ccccc2)C(c2ccccc2-c2ccc(C(=O)O)cc2)C2=C(CCCC2=O)N1 (stereo not drawn)
2. CC1=C(C(=O)OCc2ccccc2)C(c2ccc(N(C)C)c3ccccc23)n2nnnc2N1 (stereo not drawn)
3. CC1=C(C(=O)OC(C)C)C(c2cccc3ccccc23)n2nnnc2N1 (stereo not drawn)
4. CC1=C(C(=O)OCc2ccccc2)C(c2nccs2)n2nnnc2N1 (stereo not drawn)

11.5
19
13
10

I am curious: what hERG Patch Clamp hERG % blk (1 μM test cmpd) value has been reported for CC1=C(C(=O)OCc2ccccc2)C(c2sccc2-c2ccc(F)cc2)n2nnnc2N1 (stereo not drawn) ?
10
